Please find below IC50 data on Epidermal growth factor receptor (Homo sapiens, UniProt P00533) compiled from the literature.

| INPUT SMILES | EXPERIMENTAL TARGET | IC50 |
| --- | --- | --- |
| Cc1c2c(nn1CCO)CNC[C@H](C)Oc1c(cnn1C)-c1ccc3[nH]nc(c3c1)/C=C/2 | Epidermal growth factor receptor (Homo sapiens, UniProt P00533) | > 1000 nM |

// each listed compound needs a value for IC50
1. Cc1ccnc(NC(=O)c2ccc(Oc3ccnc4[nH]nc(N[C@@H]5CCCN(C(=O)C6(C)CC6)C5)c34)cc2)c1
2. COc1cc(C)ccc1C(=O)NCc1ccc(-c2nn(C3CCCC3)c3ncnc(N)c23)cc1
3. CN(C/C=C/C(=O)Nc1ccccc1Nc1n[nH]c2nccc(Oc3ccc(Oc4ccccc4)cc3)c12)C1CC1
4. CN(C)C/C=C/C(=O)Nc1cccc(Nc2cc(Nc3ccccc3)ncn2)n1
5. CN(C)C/C=C/C(=O)N1CCOc2c1ccc1ncnc(Nc3ccc(Oc4nccs4)cc3)c21
6. C=CC(=O)Nc1cc(-c2c(-c3cncnc3)[nH]c3nccc(Cl)c23)ccc1C

["> 10000 nM", "> 10000 nM", "> 10000 nM", "≤ 10 nM", "50 to 500 nM", "100 to 500 nM"]

// each listed compound needs a value for IC50
1. C=CC(=O)N1CCC[C@@H](Nc2n[nH]c3nccc(Oc4cccc(C(=O)Nc5cc(C(F)(F)F)ccn5)c4)c23)C1
2. C=CC(=O)Nc1cccc(N2C(=O)N(Cc3ccccc3)Cc3cnc(Nc4ccc(N5CCN(C)CC5)cc4OC)nc32)c1

< 100 nM
≤ 10 nM
